# SYSTEM NAME: MLK1 (Homo sapiens)
# Sequence (P80192 144-412 limits assumed, species assumed): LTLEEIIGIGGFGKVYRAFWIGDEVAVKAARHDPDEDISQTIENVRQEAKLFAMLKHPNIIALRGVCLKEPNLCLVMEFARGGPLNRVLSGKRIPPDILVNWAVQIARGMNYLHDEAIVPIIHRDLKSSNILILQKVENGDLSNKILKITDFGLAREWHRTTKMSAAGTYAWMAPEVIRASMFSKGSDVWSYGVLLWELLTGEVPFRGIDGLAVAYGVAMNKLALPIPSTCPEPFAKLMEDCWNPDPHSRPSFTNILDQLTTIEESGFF
pIC50: −log10 of the molar value.
QUANTITY KIND: pIC50

Example molecules with recorded pIC50:
{"MOLECULE": "O=C1NCc2c1c1c(c3c2c2ccccc2n3CCO)Cc2ccccc2-1 [A, reference compound]", "SYSTEM NAME": "MLK1 (Homo sapiens)", "pIC50": 7.66}
{"MOLECULE": "CCOC(C)c1ccc2c(c1)c1c3c(c4c(c1n2CCCO)Cc1ccccc1-4)C(=O)NC3 (single isomer, unassigned)", "SYSTEM NAME": "MLK1 (Homo sapiens)", "pIC50": 7.55}
{"MOLECULE": "CCOCc1ccc2[nH]c3c4c(c5c(c3c2c1)CNC5=O)-c1ccccc1C4", "SYSTEM NAME": "MLK1 (Homo sapiens)", "pIC50": 7.34}

[1] COC(C)c1ccc2[nH]c3c4c(c5c(c3c2c1)CNC5=O)-c1ccccc1C4 (racemic)
[2] CC(C)OCc1ccc2c(c1)c1c3c(c4c(c1n2CCCOC(=O)CCN)Cc1ccccc1-4)C(=O)NC3
[3] COCc1ccc2c(c1)c1c3c(c4c(c1n2CCCO)Cc1ccccc1-4)C(=O)NC3
List by increasing pIC50. Please express your ranking as an ordered list of the labels.
2, 1, 3
(2: 7.38, 1: 7.59, 3: 7.82)
